These entries and their values trace back to paper PMC2756588.

- TARGET_DESC: T1, Bud14, P27637
- T1 sequence (P27637 247-328, looked up): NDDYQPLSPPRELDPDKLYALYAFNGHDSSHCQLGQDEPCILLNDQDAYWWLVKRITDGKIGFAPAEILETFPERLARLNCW
- TEST_DESCRIPTION: SPOT array
- CONDITION_CONTEXT: median of control spots 956
READOUT_NAME: SPOT intensity

[[record]]
binder = "FHLNPKRSAVLYDRP"
readout_name = "SPOT intensity"
observed_value = 9


P = KNPRRQLQIPRQQPS
Q = QLMKNLPKIPLLNDI
Smaller SPOT intensity value, P vs Q ? Lab log: write the label of the selected item as the result.
Q
(Q: 0, P: 6)

a = QFDLKMPSKPIHNLK
b = LFMKGTPEFPKSGFS
c = VTHRLRISIPGITGR
d = EVTPKVPERPSRRKT
Arrange the 4 binders by rising SPOT intensity, starting with the smallest. Write out the labels following the order that was asked for.
a, b, d, c
(a: 0, b: 1, d: 3, c: 12)

a = GPPPPLPPPLFPSSS
b = IKKRNKIRLPSGSPE
Pick the one with the larger SPOT intensity: a vs b Refer to your chosen item by its label in the answer.
b

1 = RPVPPPPPMRTTTEG
2 = MARRRLPDRPPNGIG
3 = NPNRRAPRRPLSTQH
Thanks in advance: please rank these 3 entries by SPOT intensity, highest to lowest. I'd appreciate it if you listed the labels in the requested order.
3, 2, 1
(3: 17, 2: 4, 1: 0)
